Source of measurements: the supplement of paper PMC9732359

test: protein stability index of a GFP-peptide fusion (yeast GPS) (PSI 1-4); higher = more stable; sorted into four equal gates, so the index is relative within each strain; conditions: pdr5∆
Cut-off 3 on protein stability index, inclusive. At or above means Satisfied; below means Not satisfied.

Worked set:
item_sequence	assigned_category
IYDDWLDRISSYTAFSR [PRP8]	Not satisfied
IVIDVDYNKKQDRIQDV [MED1]	Satisfied
VYDFYGRHVATCSSDQH [YGL100W/SEH1]	Not satisfied
KTPNRSSTPKFTKKPVT [SIR4]	Not satisfied
IRNVLVTVDQYVNVAIS [SSN2]	Not satisfied

Would you say ERSDLLPYLSDTCAVSF [YJR042W/NUP85] shows protein stability index at minimum 3?
Not satisfied

Is protein stability index for ILRMGAFRTIESKSDDN [RRI1] at or above 3?
Not satisfied

Would you say GTSTTHGSISPQEESVS [SIR3] shows protein stability index at minimum 3?
Not satisfied
